Test system: RARa:RXR (NR concentration 270 nM, RXRa partner concentration 90 nM)
EXPERIMENT DESCRIPTION: PBM binding z-score (relative to random genomic background probes); higher = stronger binding; sequences stand for … in GC…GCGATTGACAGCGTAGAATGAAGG
Rule: PBM binding z-score under 2 gives Not met, otherwise Met.

Worked cases, answers included:
Query string: Decide: PBM binding z-score of `CCTGCTAGGTCATGTTCAGCTAATCTACAGTATG` >= 2?
Result string: Not met

Query string: Decide: PBM binding z-score of `ATCGAAAGGTCGTAGGTGAGTATACCCACCCGAA` >= 2?
Result string: Met

Query string: Decide: PBM binding z-score of `GCTGCCAGGTCAGGTTGGTCAGCTAACGGGTACG` >= 2?
Result string: Not met

Query string: Decide: PBM binding z-score of `CCTATTAGTTCACCATAAGGGCAACCGAAGCTCG` >= 2?
Result string: Met

Query string: Decide: PBM binding z-score of `TTACCAAGGTGACAGGTCGTTGATGCACGCCTTG` >= 2?
Result string: Not met

---
Query string: Decide: PBM binding z-score of `CGTCCAAGGTCAAAGGTCAGTCAAGAGATGACGG` >= 2?
Result string: Met

Query string: Decide: PBM binding z-score of `GCTTACGGGCCAAAGGTTATAGCATGAATAGAAT` >= 2?
Result string: Met

====

System: LXRa:RXRa (NR concentration 270 nM, RXRa partner concentration 90 nM)
EXPERIMENT DESCRIPTION: PBM binding z-score (relative to random genomic background probes); higher = stronger binding; sequences stand for … in GC…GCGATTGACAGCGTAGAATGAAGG
EXPERIMENTAL ENDPOINT: PBM binding z-score
Could you keep your reply to the number by itself?

Examples with answers:
Query string: Entry under review: `ATCTCTAGGTAAGACTCAGTTCAGGGAAGAACGC` . Reported PBM binding z-score?
Result string: 0.883

Query string: Entry under review: `CCAGACAGGTGAGAATGTAACTCAGCCTCGATTA` . Reported PBM binding z-score?
Result string: -0.116

---
Query string: Entry under review: `CTCGAAAGGTCGTGCTCAGGGGAGTATACCAAAC` . Reported PBM binding z-score?
Result string: 3.33

====

Test system: PXR:RXRa (NR concentration 270 nM, RXRa partner concentration 90 nM)
EXPERIMENT DESCRIPTION: PBM binding z-score (relative to random genomic background probes); higher = stronger binding; sequences stand for … in GC…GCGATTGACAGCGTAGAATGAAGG
Rule: PBM binding z-score under 1 gives label 0, otherwise label 1.

Worked cases, answers included:
Query string: Decide: PBM binding z-score of `CTTGCTAGGTCAATGGTCAGCTAAAGCAGCTCGC` >= 1?
Result string: label 0

Query string: Decide: PBM binding z-score of `GCTGCTAGGTCAGGTTGGTCAGGTAACGGGTACG` >= 1?
Result string: label 0

Query string: Decide: PBM binding z-score of `ATCTCTAGGAAAAAGTTCAGTGAATCCCGAGGAT` >= 1?
Result string: label 0

---
Query string: Decide: PBM binding z-score of `CTTACTGGGCCAAGGTCATTGATCAGTCAAAGCA` >= 1?
Result string: label 1

Query string: Decide: PBM binding z-score of `CCTACTGGGCCACGAACGGTCATTGATTCAGTGA` >= 1?
Result string: label 0
